- Assayed System: TbTryS (Trypanosoma brucei)
- Sequence (Q586P2 1-627): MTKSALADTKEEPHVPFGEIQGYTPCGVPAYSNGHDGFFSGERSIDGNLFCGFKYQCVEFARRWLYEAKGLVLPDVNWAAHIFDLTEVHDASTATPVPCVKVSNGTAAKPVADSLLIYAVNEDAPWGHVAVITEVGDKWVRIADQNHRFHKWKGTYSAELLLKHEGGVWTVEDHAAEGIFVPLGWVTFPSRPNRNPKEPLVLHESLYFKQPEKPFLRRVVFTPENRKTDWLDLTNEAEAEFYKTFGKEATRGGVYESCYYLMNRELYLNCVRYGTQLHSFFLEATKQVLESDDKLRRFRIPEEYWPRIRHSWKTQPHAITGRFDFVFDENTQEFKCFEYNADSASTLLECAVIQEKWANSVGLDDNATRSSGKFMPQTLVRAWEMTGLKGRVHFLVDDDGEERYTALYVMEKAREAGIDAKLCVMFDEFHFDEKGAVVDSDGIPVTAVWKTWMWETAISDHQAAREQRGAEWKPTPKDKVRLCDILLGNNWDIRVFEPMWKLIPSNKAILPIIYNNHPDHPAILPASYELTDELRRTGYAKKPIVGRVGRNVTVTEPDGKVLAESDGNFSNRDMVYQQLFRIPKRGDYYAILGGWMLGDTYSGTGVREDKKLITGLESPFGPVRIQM
- Experiment Summary: Trypanothione synthetase
- Assay type: biochemical
- Measurement Context: calculated as −0.6×ln(IC50)/(heavy atom count)
// map LE (ligand efficiency) onto a label; ranges lower bin (below 0.3), middle bin (0.3 to below 0.4), upper bin (0.4 or more)

INSERT INTO assay_data (compound, assigned_label) VALUES
  ('CN(C)C(=O)Cn1nc(-c2cccc(F)c2)c2ccccc21 [Compound 88]', 'upper bin'),
  ('CN1CCN(CCCNC(=O)Cn2nc(-c3cccc(F)c3)c3ccccc32)CC1 [Compound 80]', 'lower bin'),
  ('Cc1nc(Cn2nc(-c3cccc(F)c3)c3ccccc32)c(C)o1 [Compound 77]', 'lower bin'),
  ('CC(C)(C)OC(=O)N1CCN(CCNC(=O)Cn2nc(-c3cccc(F)c3)c3ccccc32)CC1 [Compound 82]', 'lower bin'),
  ('Fc1cccc(-c2nn(Cc3ccccn3)c3ccccc23)c1 [Compound 75]', 'middle bin'),
  ('CN(C)CCNC(=O)Cn1nc(-c2cccc(F)c2)c2ccccc21 [Compound 83]', 'middle bin'),
  ('O=C(Cn1nc(-c2cccc(F)c2)c2ccccc21)N1CCCCC1 [Compound 89]', 'middle bin'),
  ('CC(C)(C)C(=O)Cn1nc(-c2ccsc2)c2ccccc21 [Compound 68]', 'upper bin'),
  ('CC(C)(C)C(=O)Cn1nc(-c2cccnc2)c2ccccc21 [Compound 67]', 'middle bin'),
  ('Fc1cccc(-c2nn(Cc3cccnc3)c3ccccc23)c1 [Compound 76]', 'middle bin'),
  ('CN1CCN(CCNC(=O)Cn2nc(-c3cccc(F)c3)c3ccccc32)CC1 [Compound 90]', 'lower bin'),
  ('O=C(Cn1nc(-c2cccc(F)c2)c2ccccc21)NCCCn1ccnc1 [Compound 81]', 'middle bin'),
  ('CC(C)(C)C(=O)Cn1nnc(-c2cc(Cl)cc(Cl)c2)n1 [Compound 20]', 'upper bin'),
  ('CC(C)(C)C(=O)Cn1nc(-c2cccc(F)c2)c2ccccc21 [Compound 71]', 'upper bin');

* * *

- Assayed System: UniProtKB Q586P2
- Experiment Summary: Trypanothione synthetase
- Assay type: biochemical
- Measurement Context: TbTryS IC50, values in running text
Property: IC50 (µM)

INSERT INTO results (input_smiles, readout_value) VALUES
  ('CC(C)(C)C(=O)Cn1nc(-c2cccc(Cl)c2)c2ccccc21', 0.354),
  ('O=C(Cn1nc(-c2cccc(F)c2)c2ccccc21)N1CCCCC1', 0.135);

* * *

- Assayed System: TbTryS (Trypanosoma brucei)
- Experiment Summary: Trypanothione synthetase
- Assay type: biochemical
- Measurement Context: TbTryS IC50
Property: IC50

INSERT INTO measurements (input_smiles, readout_value) VALUES
  ('O=C(Cn1nc(-c2cccc(F)c2)c2ccccc21)N1CCCCC1', '140 nM'),
  ('COc1cccc(-c2csc(CS(=O)(=O)C(C)(C)C)n2)c1', '12000 nM'),
  ('CN1CCN(CCCNC(=O)Cn2nc(-c3cccc(F)c3)c3ccccc32)CC1', '830 nM'),
  ('CC(C)(C)S(=O)(=O)Cc1nc(-c2ccccc2)cs1', '1200 nM'),
  ('CC(C)(C)C(=O)Cn1nc(-c2ccncc2)c2ccccc21', '300 nM'),
  ('CC(C)(C)C(=O)Cn1nnc(-c2cccc(F)c2)n1', '1500 nM'),
  ('Cc1nc(Cn2nc(-c3cccc(F)c3)c3ccccc32)c(C)o1', '28000 nM'),
  ('CC(C)(C)C(=O)Cn1nc(-c2cccnc2)c2ccccc21', '3000 nM'),
  ('Fc1cccc(-c2nn(Cc3cc(-c4ccccc4)on3)c3ccccc23)c1', '> 100000 nM');

* * *

- Assayed System: TbTryS (Trypanosoma brucei)
- Experiment Summary: Trypanothione synthetase
- Format: biochemical
- Measurement Context: TbTryS IC50
Strictly below 0.6 µM in IC50: 1 (yes). Otherwise: 0 (no).

INSERT INTO measurements (input_smiles, assigned_label) VALUES
  ('Cc1cc(Cn2nc(-c3cccc(F)c3)c3ccccc32)no1', '0 (no)'),
  ('O=C(Cn1nc(-c2cccc(F)c2)c2ccccc21)NCCCn1ccnc1', '1 (yes)'),
  ('Cn1ccc2c(-c3nn(CC(=O)C(C)(C)C)c4ccccc34)cccc21', '0 (no)'),
  ('CC(C)(C)C(=O)Cn1nc(-c2cccc(Cl)c2)c2ccccc21', '1 (yes)'),
  ('Cc1nn(-c2ccccc2)nc1CNS(=O)(=O)C(C)(C)C', '0 (no)'),
  ('CN(C)C(=O)Cn1nc(-c2cccc(F)c2)c2ccccc21', '1 (yes)'),
  ('O=C(Cn1nnc(-c2cc(F)cc(F)c2)n1)c1ccccc1', '0 (no)'),
  ('CC(C)Cn1cc(-c2nn(CC(=O)C(C)(C)C)c3ccccc23)cn1', '0 (no)'),
  ('CC(C)(C)S(=O)(=O)Cc1nn(-c2ccccc2)c2ccccc12', '1 (yes)'),
  ('CC(C)(C)C(=O)Cn1nnc(-c2cc(F)cc(F)c2)n1', '0 (no)'),
  ('CC(C)(C)S(=O)(=O)Cc1nc(-c2ccccc2F)cs1', '0 (no)'),
  ('Cc1ccccc1-c1csc(CS(=O)(=O)C(C)(C)C)n1', '0 (no)'),
  ('CC(=O)Cn1nnc(-c2cc(Cl)cc(Cl)c2)n1', '0 (no)'),
  ('CC(C)(C)S(=O)(=O)Cc1nc(-c2cccc(F)c2)cs1', '1 (yes)'),
  ('CC(C)(C)OC(=O)N1CCN(CCNC(=O)Cn2nc(-c3cccc(F)c3)c3ccccc32)CC1', '0 (no)'),
  ('CC(C)(C)S(=O)(=O)Cc1nc(-c2cccc(C(F)(F)F)c2)cs1', '0 (no)'),
  ('CCC(=O)Cn1nnc(-c2cc(Cl)cc(Cl)c2)n1', '0 (no)'),
  ('Fc1cccc(-c2nn(Cc3ccccn3)c3ccccc23)c1', '0 (no)'),
  ('CC(C)(C)C(=O)Cn1nc(-c2ccsc2)c2ccccc21', '1 (yes)');

* * *

- Experiment Summary: Human cell counter-screen proliferation assay
- Format: cell-based
- Measurement Context: MRC5 fibroblasts
pEC50: −log10 of the molar value.
Catalogue of pEC50 values
Property: pEC50

INSERT INTO results (input_smiles, readout_value) VALUES
  ('O=C(Cn1nc(C(F)(F)F)c2c1CCCC2)NCc1ccc(Cl)cc1', '< 4.30'),
  ('CC(C)(C)C(=O)Cn1nc(-c2cccc(F)c2)c2ccccc21', '< 4.30'),
  ('CN(C)CCCNC(=O)Cn1nc(-c2cccc(F)c2)c2ccccc21', 4.70),
  ('O=C(Cn1nc(-c2cccc(F)c2)c2ccccc21)N1CCCCC1', '< 4.30'),
  ('CC(C)(C)S(=O)(=O)Cc1nc(-c2cccc(Cl)c2)cs1', '< 4.30');

* * *

- Assayed System: TbTryS (Trypanosoma brucei)
- Experiment Summary: Trypanothione synthetase
- Type: biochemical
- Measurement Context: TbTryS IC50
pIC50: −log10 of the molar value.
Short version: pIC50 at least 6 is 1, less is 0.

INSERT INTO assay_data (input_smiles, assayed_system, assigned_label) VALUES
  ('CC(C)(C)C(=O)Cn1nc(-c2ccco2)c2ccccc21', 'TbTryS (Trypanosoma brucei)', 0),
  ('CC(C)(C)C(=O)Cn1nc(-c2cccc3[nH]ccc23)c2ccccc21', 'TbTryS (Trypanosoma brucei)', 0),
  ('CC(C)(C)C(=O)Cn1nnc(-c2cc(Cl)cc(Cl)c2)n1', 'TbTryS (Trypanosoma brucei)', 1),
  ('CC(C)(C)C(=O)Cn1nnc(-c2ccccc2)n1', 'TbTryS (Trypanosoma brucei)', 0);
